For each entry below, report its Cmax value.
# method-notes: Pharmacokinetics of Compounds 27, 40, 22 and 41 in ICR mice in different modes of administration
# Type: in vivo
# settings: ICR, mouse, in vivo, po, 5 mg/kg
Give bare numbers, in ng/mL.

Examples from the recorded data:
1) COCCNc1ccc(CCNc2nc(N)n3nc(-c4ccco4)nc3n2)cc1 = 1550
2) Nc1nc(NCCc2ccc(NC3COC3)cc2)nc2nc(-c3ccco3)nn12 = 3510
3) CCn1nnc(-c2ccc(CCNc3nc(N)n4nc(-c5ccco5)nc4n3)cc2)n1 = 1300

// next item, Cmax requested
Task: # input compound: Cn1nnc(-c2ccc(CCNc3nc(N)n4nc(-c5ccco5)nc4n3)cc2)n1 ; wanted: its Cmax
Output: 2130

---

# method-notes: Pharmacokinetics of acetate of Compound 22 in SD rats with single and repeated administration
# Format: in vivo
# settings: male, Sprague-Dawley, rat, plasma, po, 63 mg/kg, Group 3 PO 63 mg/kg single, Male, read-out: AUC0-t
# Experimental: The formulation for Group 5 was prepared before administration on Day 1, and then, divided into daily doses and stored at 5±3° C. […] Pharmacokinetic data was calculated using the linear logarithmic trapezoidal method, with a weight of 1/(Y*Y). Samples with the sample concentration below the lower limit of quantification were excluded from the calculation of pharmacokinetic parameters. […]
measured-metric: AUC(0-t) (ng·h/mL)
Give bare numbers, in ng·h/mL.

Task: # input compound: CC(=O)O.Nc1nc(NCCc2ccc(NC3COC3)cc2)nc2nc(-c3ccco3)nn12 [Acetate of Compound 22] ; wanted: its AUC(0-t)
Output: 87300

---

# method-notes: Pharmacokinetics of acetate of Compound 22 in SD rats with single and repeated administration
# Format: in vivo
# settings: both sexes, Sprague-Dawley, rat, plasma, po, 63 mg/kg, Group 3 PO 63 mg/kg single, Overall, read-out: T1/2 (converted)
measured-metric: half-life
Mention the unit after the number when you answer.

Task: # input compound: CC(=O)O.Nc1nc(NCCc2ccc(NC3COC3)cc2)nc2nc(-c3ccco3)nn12 [Acetate of Compound 22] ; wanted: its half-life
Output: 181 min

---

# method-notes: Pharmacokinetics of Compounds 27, 40, 22 and 41 in ICR mice in different modes of administration
# Assay type: in vivo
# settings: ICR, mouse, in vivo, iv, 1 mg/kg
For each entry below, report its Cmax value.
Mention the unit after the number when you answer.

1) Nc1nc(NCCc2ccc(NC3COC3)cc2)nc2nc(-c3ccco3)nn12 = 1690 ng/mL

// batch mode: one Cmax value per listed entry
1. COCCNc1ccc(CCNc2nc(N)n3nc(-c4ccco4)nc3n2)cc1
2. CCn1nnc(-c2ccc(CCNc3nc(N)n4nc(-c5ccco5)nc4n3)cc2)n1
3. Cn1nnc(-c2ccc(CCNc3nc(N)n4nc(-c5ccco5)nc4n3)cc2)n1

Output:
1. 993 ng/mL
2. 2230 ng/mL
3. 1880 ng/mL

---

For each entry below, report its Cmax value.
# method-notes: Pharmacokinetics of Compounds 22, 27 and 40 in SD rats after oral administration for 7 consecutive days
# Assay type: in vivo
# settings: male, Sprague-Dawley (SD), rat, plasma, po, 30 mg/kg, male SD rats, oral 30 mg/kg once a day; Day 1; read-out: maximum plasma concentration Cmax
Give bare numbers, in ng/mL.

1. Nc1nc(NCCc2ccc(NC3COC3)cc2)nc2nc(-c3ccco3)nn12 = 1020
2. COCCNc1ccc(CCNc2nc(N)n3nc(-c4ccco4)nc3n2)cc1 = 7100

Task: # input molecule: Cn1nnc(-c2ccc(CCNc3nc(N)n4nc(-c5ccco5)nc4n3)cc2)n1 ; wanted: its Cmax
Output: 503

---

For each entry below, report its Cmax value.
# method-notes: Pharmacokinetics of Compounds 22, 27 and 40 in SD rats after oral administration for 7 consecutive days
# Type: in vivo
# settings: male, Sprague-Dawley, rat, plasma, po, 30 mg/kg, male SD rats, oral 30 mg/kg once a day for 7 consecutive days, Day 7; mean; read-out: Cmax
One number for each entry, in ng/mL.

1) Nc1nc(NCCc2ccc(NC3COC3)cc2)nc2nc(-c3ccco3)nn12 = 947
2) COCCNc1ccc(CCNc2nc(N)n3nc(-c4ccco4)nc3n2)cc1 = 4620

// next item, Cmax requested
Task: # input molecule: Cn1nnc(-c2ccc(CCNc3nc(N)n4nc(-c5ccco5)nc4n3)cc2)n1 ; wanted: its Cmax
Output: 581

---

# method-notes: Pharmacokinetics of acetate of Compound 22 in SD rats with single and repeated administration
# Type: in vivo
# settings: both sexes, Sprague-Dawley, rat, plasma, po, 63 mg/kg, Group 5 PO 63 mg/kg repeated, Day 7, Overall, read-out: T1/2 (converted)
measured-metric: half-life (h)
Give bare numbers, in h.

Task: # input molecule: CC(=O)O.Nc1nc(NCCc2ccc(NC3COC3)cc2)nc2nc(-c3ccco3)nn12 [Acetate of Compound 22] ; wanted: its half-life
Output: 3.21

---

# method-notes: Pharmacokinetics of acetate of Compound 22 in SD rats with single and repeated administration
# Format: in vivo
# settings: male, Sprague-Dawley, rat, plasma, po, 63 mg/kg, Group 5 PO 63 mg/kg repeated, Day 7, Male, read-out: T1/2 (converted)
# Protocol: The formulation for Group 5 was prepared before administration on Day 1, and then, divided into daily doses and stored at 5±3° C. […] Pharmacokinetic data was calculated using the linear logarithmic trapezoidal method, with a weight of 1/(Y*Y). Samples with the sample concentration below the lower limit of quantification were excluded from the calculation of pharmacokinetic parameters. […]
measured-metric: half-life (h)
Answers are plain numbers, in h.

Task: # input compound: CC(=O)O.Nc1nc(NCCc2ccc(NC3COC3)cc2)nc2nc(-c3ccco3)nn12 [Acetate of Compound 22] ; wanted: its half-life
Output: 3.69

---

# assay-system: Human adenosine ADORA2B receptor membrane protein (Homo sapiens, UniProt P29275)
# Construct: purchased PerkinElmer ES-013-M400UA
# Sequence (P29275 whole entry): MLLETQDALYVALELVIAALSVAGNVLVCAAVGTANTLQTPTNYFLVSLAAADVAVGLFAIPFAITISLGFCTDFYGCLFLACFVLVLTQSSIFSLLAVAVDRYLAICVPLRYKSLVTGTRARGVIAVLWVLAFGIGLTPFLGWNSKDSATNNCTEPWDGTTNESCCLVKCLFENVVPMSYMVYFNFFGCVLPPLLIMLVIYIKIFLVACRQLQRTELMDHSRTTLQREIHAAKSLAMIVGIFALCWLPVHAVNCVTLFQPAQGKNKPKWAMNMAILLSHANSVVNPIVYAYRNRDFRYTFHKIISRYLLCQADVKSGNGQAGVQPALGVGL
# method-notes: Radioisotope ligand competitive binding, ADORA2B ([3H] DPCPX)
# settings: ADORA2B (IC50, nM, n = 3), binding test, Table 10 (IC50)
For each entry below, report its IC50 value.
Give bare numbers, in nM.

1. Cn1nnc(-c2ccc(CCNc3nc(N)n4nc(-c5ccco5)nc4n3)cc2)n1 [Compound 40] = 268

Task: # input compound: Nc1nc(NCCc2ccc(NC3COC3)cc2)nc2nc(-c3ccco3)nn12 [Compound 22] ; wanted: its IC50
Output: 344

---

# method-notes: Pharmacokinetics of Compounds 27, 16, 14 and 22 in SD rats
# Format: in vivo
# settings: Sprague-Dawley, rat, in vivo, PO, dose 5 (mg/kg)
measured-metric: Cmax (ng/mL)
Answers are plain numbers, in ng/mL.

Task: # input compound: COCCNc1ccc(CCNc2nc(N)n3nc(-c4ccco4)nc3n2)cc1 ; wanted: its Cmax
Output: 318

---

# method-notes: Pharmacokinetics of acetate of Compound 22 in SD rats with single and repeated administration
# Format: in vivo
# settings: Sprague-Dawley, rat, plasma, Group 1 IV 2.0 mg/kg single, Female, read-out: CL
measured-metric: clearance (mL/min/kg)
Answers are plain numbers, in mL/min/kg.

Task: # input compound: CC(=O)O.Nc1nc(NCCc2ccc(NC3COC3)cc2)nc2nc(-c3ccco3)nn12 [Acetate of Compound 22] ; wanted: its clearance
Output: 5.66

---

# method-notes: Pharmacokinetics of acetate of Compound 22 in SD rats with single and repeated administration
# Type: in vivo
# settings: male, Sprague-Dawley, rat, plasma, po, 63 mg/kg, Group 5 PO 63 mg/kg repeated, Day 1, Male, read-out: AUC0-t
measured-metric: AUC(0-t)
Mention the unit after the number when you answer.

Task: # input compound: CC(=O)O.Nc1nc(NCCc2ccc(NC3COC3)cc2)nc2nc(-c3ccco3)nn12 [Acetate of Compound 22] ; wanted: its AUC(0-t)
Output: 79700 ng·h/mL

---

# method-notes: Pharmacokinetics of Compound 40 and benzene sulfonate thereof in ICR mice, PO
# settings: mouse, in vivo, PO 100 mg/kg (based on free base), 40% Hp-β-CD
measured-metric: Tmax

1) Cn1nnc(-c2ccc(CCNc3nc(N)n4nc(-c5ccco5)nc4n3)cc2)n1.O=S(=O)(O)c1ccccc1 [Benzene sulfonate of Compound 40] = 30 min

// next item, Tmax requested
Task: # input molecule: Cn1nnc(-c2ccc(CCNc3nc(N)n4nc(-c5ccco5)nc4n3)cc2)n1 [Compound 40] ; wanted: its Tmax
Output: 30 min

---

# method-notes: Pharmacokinetics of acetate of Compound 22 in SD rats with single and repeated administration
# Assay type: in vivo
# settings: Sprague-Dawley, rat, plasma, Group 1 IV 2.0 mg/kg single, Male, read-out: Vss
measured-metric: Vd
Mention the unit after the number when you answer.

Task: # input compound: CC(=O)O.Nc1nc(NCCc2ccc(NC3COC3)cc2)nc2nc(-c3ccco3)nn12 [Acetate of Compound 22] ; wanted: its Vd
Output: 0.445 L/kg
